# Tested on: SF-539 CNS
# Test Protocol: NCI tumour cell line growth inhibition, 48 h

{"Compound": "CCOC(=O)n1c2ccccc2c2c(O)c(OC)c3c(c21)C(=O)NC3=O", "Comparative Sign": ">", "TGI / µM": 100}
{"Compound": "COC1=CC(=O)c2c(O)c3c(c(O)c2C1=O)CC(C)(O)OC3 (centres undefined)", "Comparative Sign": "=", "TGI / µM": 9.66}
{"Compound": "O=C(/C=C/c1ccccc1O)CC(=O)/C=C/c1ccccc1O", "Comparative Sign": "=", "TGI / µM": 15.7}
{"Compound": "C/C(=C/CC[C@](C)(OC1OC(CO)C(O)C(O)C1OC1OC(C)C(O)C(O)C1O)[C@H]1CC[C@]2(C)[C@@H]1CC[C@@H]1[C@@]3(C)CC[C@H](O)C(C)(C)[C@@H]3C[C@H](O)[C@]12C)CO (some centres undefined)", "Comparative Sign": ">", "TGI / µM": 100}
